target-desc: human CDK4/cyclin D3 (Homo sapiens)
Construct: made in house; host or cells: insect cells co-infected with baculovirus vectors
Sequence (P11802 whole entry): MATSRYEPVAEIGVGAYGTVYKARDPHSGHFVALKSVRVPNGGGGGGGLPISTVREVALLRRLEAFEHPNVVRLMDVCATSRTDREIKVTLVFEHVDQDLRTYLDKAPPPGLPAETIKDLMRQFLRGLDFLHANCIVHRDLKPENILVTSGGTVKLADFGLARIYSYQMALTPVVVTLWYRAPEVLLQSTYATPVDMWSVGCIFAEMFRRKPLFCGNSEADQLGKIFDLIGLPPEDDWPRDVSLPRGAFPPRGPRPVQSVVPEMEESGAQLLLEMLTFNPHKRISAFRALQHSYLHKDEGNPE
Sequence (P30281 1-264 partner limits assumed): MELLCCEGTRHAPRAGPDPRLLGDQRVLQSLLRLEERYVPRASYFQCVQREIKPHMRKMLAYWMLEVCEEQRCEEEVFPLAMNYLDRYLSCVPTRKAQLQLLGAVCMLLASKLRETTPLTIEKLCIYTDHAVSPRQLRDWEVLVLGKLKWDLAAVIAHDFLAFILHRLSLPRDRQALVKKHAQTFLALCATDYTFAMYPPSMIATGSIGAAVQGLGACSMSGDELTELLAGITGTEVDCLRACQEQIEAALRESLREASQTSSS
test-protocol: Inhibition of CDK4/cyclin D retinoblastoma kinase activity (Ki; % inhibition)
Type: biochemical
run-parameters: 0.03 μM compound
result-type: CDK4 % Inhibition at 0.03 μM (%)

[
  {
    "mol-smiles": "Nc1ccccc1CNC(=O)c1ccc(Nc2nc(N)c(C(=O)c3c(F)cccc3F)s2)cc1",
    "unit-name": "%",
    "CDK4 % Inhibition at 0.03 μM": 23
  }
]

[A] Nc1nc(Nc2ccc(C(=O)NCCCN(CCO)CCO)cc2)sc1C(=O)c1c(F)cccc1F
[B] CN(CCC#N)C(=O)c1ccc(Nc2nc(N)c(C(=O)c3c(F)cccc3F)s2)cc1
# query: argmin of CDK4 % Inhibition at 0.03 μM over A and B // return label of chosen record B
(B: 22%, A: 34%)

* * *

target-desc: CDK2/cyclin A (Homo sapiens)
Construct: made in house; host or cells: CDK2: insect cells (baculovirus); cyclin A: E. coli
test-protocol: Inhibition of CDK2/cyclin A retinoblastoma kinase activity (Ki; % inhibition)
Type: biochemical
run-parameters: at 0.03 μM
result-type: CDK2 % Inhibition at 0.03 μM (%)

[
  {
    "compound": "Nc1nc(Nc2ccc(C(=O)NC3CCCCC3)cc2)sc1C(=O)c1c(F)cccc1F",
    "result-type": "CDK2 % Inhibition at 0.03 μM",
    "reading": 6
  },
  {
    "compound": "CNC(=O)C(C)NC(=O)c1ccc(Nc2nc(N)c(C(=O)c3c(F)cccc3F)s2)cc1 (centres unmarked)",
    "result-type": "CDK2 % Inhibition at 0.03 μM",
    "reading": 8
  },
  {
    "compound": "CCN(Cc1ccncc1)C(=O)c1ccc(Nc2nc(N)c(C(=O)c3c(F)cccc3F)s2)cc1",
    "result-type": "CDK2 % Inhibition at 0.03 μM",
    "reading": 1
  },
  {
    "compound": "C[C@@H](NC(=O)c1ccc(Nc2nc(N)c(C(=O)c3c(F)cccc3F)s2)cc1)c1ccccc1",
    "result-type": "CDK2 % Inhibition at 0.03 μM",
    "reading": 22
  }
]

[P] C[C@H](NC(=O)c1ccc(Nc2nc(N)c(C(=O)c3c(F)cccc3F)s2)cc1)C(N)=O
[Q] CC(C)OCCCNC(=O)c1ccc(Nc2nc(N)c(C(=O)c3c(F)cccc3F)s2)cc1
Given P and Q , report the one with the higher recorded CDK2 % Inhibition at 0.03 μM. Return value: the label identifying the chosen record. P
(P: 14%, Q: 2%)

[P] COC(=O)c1ccc(NC(=O)c2ccc(Nc3nc(N)c(C(=O)c4c(F)cccc4F)s3)cc2)cc1
[Q] Nc1nc(Nc2ccc(C(=O)N[C@H]3CCc4ccccc43)cc2)sc1C(=O)c1c(F)cccc1F
Hey, between P and Q which has a smaller measured CDK2 % Inhibition at 0.03 μM? When you have decided, please share the label of that item. P
(P: 19%, Q: 34%)

* * *

target-desc: CDK2/cyclin A (Homo sapiens)
Construct: made in house; host or cells: CDK2: insect cells (baculovirus); cyclin A: E. coli
test-protocol: Inhibition of CDK2/cyclin A retinoblastoma kinase activity (Ki; % inhibition)
Format: biochemical
run-parameters: at 0.03 μM
result-type: CDK2 % Inhibition at 0.03 μM (%)

[
  {
    "compound": "Nc1ccc(CCNC(=O)c2ccc(Nc3nc(N)c(C(=O)c4c(F)cccc4F)s3)cc2)cc1 [Example G105]",
    "target-desc": "CDK2/cyclin A (Homo sapiens)",
    "reading": 3
  },
  {
    "compound": "COc1ccc(NC(=O)c2ccc(Nc3nc(N)c(C(=O)c4c(F)cccc4F)s3)cc2)cc1 [Example G54]",
    "target-desc": "CDK2/cyclin A (Homo sapiens)",
    "reading": 8
  },
  {
    "compound": "CC1CC(NC(=O)c2ccc(Nc3nc(N)c(C(=O)c4c(F)cccc4F)s3)cc2)CC(C)(C)C1 (stereo not shown) [Example G112]",
    "target-desc": "CDK2/cyclin A (Homo sapiens)",
    "reading": "−11"
  },
  {
    "compound": "CC(C)CC(C)NC(=O)c1ccc(Nc2nc(N)c(C(=O)c3c(F)cccc3F)s2)cc1 (stereo not shown) [Example G125]",
    "target-desc": "CDK2/cyclin A (Homo sapiens)",
    "reading": 3
  },
  {
    "compound": "CC(C)c1ccc(NC(=O)c2ccc(Nc3nc(N)c(C(=O)c4c(F)cccc4F)s3)cc2)cc1 [Example G69]",
    "target-desc": "CDK2/cyclin A (Homo sapiens)",
    "reading": 7
  },
  {
    "compound": "CC(O)c1ccc(NC(=O)c2ccc(Nc3nc(N)c(C(=O)c4c(F)cccc4F)s3)cc2)cc1 (stereo not shown) [Example G94]",
    "target-desc": "CDK2/cyclin A (Homo sapiens)",
    "reading": 10
  }
]

[a] Nc1nc(Nc2ccc(C(=O)N[C@@H]3CCc4ccccc43)cc2)sc1C(=O)c1c(F)cccc1F [Example G176]
[b] CN(Cc1cccnc1)C(=O)c1ccc(Nc2nc(N)c(C(=O)c3c(F)cccc3F)s2)cc1 [Example G20]
Which record shows the lower CDK2 % Inhibition at 0.03 μM: the first, a , or the second, b ? // caller expects the label of the chosen entry b
(b: 10%, a: 22%)

[a] COC(=O)[C@H](C)NC(=O)c1ccc(Nc2nc(N)c(C(=O)c3c(F)cccc3F)s2)cc1 [Example G145]
[b] Nc1nc(Nc2ccc(C(=O)NCC3CCCO3)cc2)sc1C(=O)c1c(F)cccc1F (stereo not shown) [Example G116]
Between these two entries, a and b , state which has the higher CDK2 % Inhibition at 0.03 μM. Refer to your chosen item by its label in the answer. a
(a: 19%, b: 7%)

[1] CC(CO)NC(=O)c1ccc(Nc2nc(N)c(C(=O)c3c(F)cccc3F)s2)cc1 (stereo not shown) [Example G175]
[2] CSCCC(O)NC(=O)c1ccc(Nc2nc(N)c(C(=O)c3c(F)cccc3F)s2)cc1 (stereo not shown) [Example G108]
When the recorded CDK2 % Inhibition at 0.03 μM values are compared, which is smaller: that of 1 or that of 2 ? Label of pick, please. 2
(2: −5%, 1: 15%)

[P] COc1ccc(NC(=O)c2ccc(Nc3nc(N)c(C(=O)c4c(F)cccc4F)s3)cc2)c(OC)c1 [Example G45]
[Q] CCOC(=O)c1cccc(NC(=O)c2ccc(Nc3nc(N)c(C(=O)c4c(F)cccc4F)s3)cc2)c1 [Example G24]
// which entry reports the smaller CDK2 % Inhibition at 0.03 μM, P or Q ? Answer = label. Q

[P] Cc1cc(NC(=O)c2ccc(Nc3nc(N)c(C(=O)c4c(F)cccc4F)s3)cc2)ccc1Cl [Example G38]
[Q] COC(=O)[C@H](C(C)C)N(C)C(=O)c1ccc(Nc2nc(N)c(C(=O)c3c(F)cccc3F)s2)cc1 [Example G77]
Thinking about recorded CDK2 % Inhibition at 0.03 μM values, which is higher, P or Q ? Response format: the label of the selected entry. Q

[A] CNC(=O)c1ccccc1NC(=O)c1ccc(Nc2nc(N)c(C(=O)c3c(F)cccc3F)s2)cc1 [Example G161]
[B] CCOC(=O)Cc1ccc(NC(=O)c2ccc(Nc3nc(N)c(C(=O)c4c(F)cccc4F)s3)cc2)cc1 [Example G130]
Pick one, A or B : lowest reported CDK2 % Inhibition at 0.03 μM. Which one? Tell me its label. B

[P] CCOC(=O)/C=C/c1ccc(NC(=O)c2ccc(Nc3nc(N)c(C(=O)c4c(F)cccc4F)s3)cc2)cc1 [Example G114]
[Q] CCCCN(CC#N)C(=O)c1ccc(Nc2nc(N)c(C(=O)c3c(F)cccc3F)s2)cc1 [Example G9]
Sort P and Q by CDK2 % Inhibition at 0.03 μM descending and give the first. Reply with the label of the item you choose. Q
(Q: −1%, P: −3%)

[a] CC(=O)c1cccc(NC(=O)c2ccc(Nc3nc(N)c(C(=O)c4c(F)cccc4F)s3)cc2)c1 [Example G189]
[b] C[C@H](NC(=O)c1ccc(Nc2nc(N)c(C(=O)c3c(F)cccc3F)s2)cc1)c1ccccc1 [Example G167]
Returns the identifier with the smallest measured CDK2 % Inhibition at 0.03 μM among a and b . Bench note: the answer is the label of the chosen record. a

* * *

target-desc: CDK2/cyclin A (Homo sapiens, UniProt P24941)
Construct: made in house; host or cells: CDK2: insect cells (baculovirus); cyclin A: E. coli
test-protocol: Inhibition of CDK2/cyclin A retinoblastoma kinase activity (Ki; % inhibition)
Type: biochemical
run-parameters: 0.03 μM compound
result-type: CDK2 % Inhibition at 0.03 μM (%)

[
  {
    "compound": "COc1ccc(CNC(=O)c2ccc(Nc3nc(N)c(C(=O)c4c(F)cccc4F)s3)cc2)c(OC)c1",
    "target-desc": "CDK2/cyclin A (Homo sapiens, UniProt P24941)",
    "CDK2 % Inhibition at 0.03 μM [%]": 28
  },
  {
    "compound": "Nc1nc(Nc2ccc(C(=O)NCCCCCCO)cc2)sc1C(=O)c1c(F)cccc1F",
    "target-desc": "CDK2/cyclin A (Homo sapiens, UniProt P24941)",
    "CDK2 % Inhibition at 0.03 μM [%]": "−5"
  },
  {
    "compound": "CCN(CC)CCCN(C)C(=O)c1ccc(Nc2nc(N)c(C(=O)c3c(F)cccc3F)s2)cc1",
    "target-desc": "CDK2/cyclin A (Homo sapiens, UniProt P24941)",
    "CDK2 % Inhibition at 0.03 μM [%]": "−27"
  },
  {
    "compound": "CN(CC(O)c1ccccc1)C(=O)c1ccc(Nc2nc(N)c(C(=O)c3c(F)cccc3F)s2)cc1 (centres unmarked)",
    "target-desc": "CDK2/cyclin A (Homo sapiens, UniProt P24941)",
    "CDK2 % Inhibition at 0.03 μM [%]": 36
  },
  {
    "compound": "Nc1nc(Nc2ccc(C(=O)N(CCCO)Cc3ccccn3)cc2)sc1C(=O)c1c(F)cccc1F",
    "target-desc": "CDK2/cyclin A (Homo sapiens, UniProt P24941)",
    "CDK2 % Inhibition at 0.03 μM [%]": 18
  },
  {
    "compound": "CC(O)c1cccc(NC(=O)c2ccc(Nc3nc(N)c(C(=O)c4c(F)cccc4F)s3)cc2)c1 (centres unmarked)",
    "target-desc": "CDK2/cyclin A (Homo sapiens, UniProt P24941)",
    "CDK2 % Inhibition at 0.03 μM [%]": 30
  }
]

[I] Nc1nc(Nc2ccc(C(=O)NCc3ccccc3Cl)cc2)sc1C(=O)c1c(F)cccc1F
[II] CC(C)NC(=O)CN1CCN(C(=O)c2ccc(Nc3nc(N)c(C(=O)c4c(F)cccc4F)s3)cc2)CC1
Field: lower CDK2 % Inhibition at 0.03 μM | Options: I / II // caller expects the label of the chosen entry II
